B1: WW domain-containing transcription regulator protein 1, residues 116 to 162; numbered along this chain, Q9GZV5 (parent)
chain: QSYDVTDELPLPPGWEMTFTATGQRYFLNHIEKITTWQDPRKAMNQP

variants of: B1; assay: abundance fitness (aPCA) (normalised: wild type 0, dead -1); higher = more abundant; growth selection in yeast, the domain comes from the species named; settings: Homo sapiens
Consider the following variants; for each one, report its abundance fitness.
Answers are plain numbers.

Look over these answered cases.
1. F19R ... -0.089
2. E32Q ... 0.033
3. H30Y ... -0.338
4. R25K ... -0.016
5. I31L ... -0.375
6. L28Y ... -0.268
7. Y26T ... -0.409
8. F19K ... -0.047
9. I31R ... -0.06
10. T6D ... -0.104

Hi team, please reply with abundance fitness for each item in this list.
1. L28F
2. A21D
3. G23T
4. R25I

[-0.335, -0.029, -0.918, -0.024]

For each listed entry, give its abundance fitness.
1. A21K
2. L9F
3. R41A
4. E16H
5. Q38A

[-0.019, -0.082, -0.5, -0.684, -0.103]

Lab note: each variant below needs its abundance fitness filled in.
1. P10C
2. P47L
3. P47N
4. T6S
5. P40S
6. F19T
7. W15V

1. -0.374
2. 0.053
3. -0.84
4. -0.03
5. -0.983
6. -0.108
7. -0.69
